molecular target: human JAK2 (Homo sapiens, UniProt O60674); construct: human JAK2, amino acids 808-end; His6 (C); experiment: JAK2 kinase Alphascreen assay; details: recombinant human JAK2 (aa 808-end), 30uM ATP, 60 minutes, room temperature; read-out: JAK inhibitory activity IC50
Sequence (O60674 808-1132 limits assumed): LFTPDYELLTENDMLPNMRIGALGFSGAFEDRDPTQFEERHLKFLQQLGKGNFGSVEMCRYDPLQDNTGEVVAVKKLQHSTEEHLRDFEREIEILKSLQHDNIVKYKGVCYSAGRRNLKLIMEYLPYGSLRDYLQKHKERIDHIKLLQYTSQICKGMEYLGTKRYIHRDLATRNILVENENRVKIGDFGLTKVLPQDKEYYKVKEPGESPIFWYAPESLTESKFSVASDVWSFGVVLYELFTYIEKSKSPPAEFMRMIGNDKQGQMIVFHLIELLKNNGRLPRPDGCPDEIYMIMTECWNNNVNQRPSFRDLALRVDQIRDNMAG
readout: IC50 (nM)

| mol smiles | unit text | measurement |
| --- | --- | --- |
| COc1cc(Nc2nc(N[C@@H](C)c3ncc(F)cn3)ncc2Cl)n[nH]1 | nM | 3.9 |

Every entry's value here was drawn from patent US8088784B2.
